assay_name: Pharmacokinetics after oral dosing
Type: in vivo
test_conditions: mouse, mice, 50 mg/kg orally, plasma
property_measured: AUC(0-t) (ng·h/mL)
Write the number in ng·h/mL without appending the unit.

I'd like to know its AUC(0-t). The molecule in question is CN1CCN(Cc2ccc(Nc3ncc(Cl)c(Nc4ccccc4S(=O)(=O)N(C)C)n3)cc2)CC1
507

====

target_or_test_system: recombinant human Axl kinase (catalytic domain, amino acids 473-894) (Homo sapiens)
Construct: catalytic domain, amino acids 473-894; purchased Invitrogen Corporation, Carlsbad, Calif
Sequence (P30530 473-894): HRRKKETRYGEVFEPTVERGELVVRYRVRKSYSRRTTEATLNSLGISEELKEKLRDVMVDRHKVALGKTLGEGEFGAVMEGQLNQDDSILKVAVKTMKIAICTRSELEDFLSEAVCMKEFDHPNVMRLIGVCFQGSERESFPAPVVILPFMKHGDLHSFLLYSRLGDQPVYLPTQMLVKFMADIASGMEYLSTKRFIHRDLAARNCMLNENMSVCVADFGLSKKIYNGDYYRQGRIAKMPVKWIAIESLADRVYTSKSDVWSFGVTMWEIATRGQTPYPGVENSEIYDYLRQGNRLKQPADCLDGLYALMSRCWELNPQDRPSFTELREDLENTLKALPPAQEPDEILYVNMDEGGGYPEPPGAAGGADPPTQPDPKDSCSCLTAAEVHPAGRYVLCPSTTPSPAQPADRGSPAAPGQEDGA
assay_name: Axl kinase activity assay (TR-FRET, fluorescein poly-GT substrate)
Format: biochemical
test_conditions: 20 μM ATP, 93 ng/ml Axl kinase, 60 min; read-out: IC50 (Axl kinase activity)
Overview of reported log10 of IC50 across a group of compounds:
Annotation: log10 of IC50, nM basis.

INSERT INTO results (structure_notation, observed_value) VALUES
  ('Cc1cnc(Nc2ccc(CN3CCN(C)CC3)cc2)nc1-c1cccc(Cl)c1', 2.65),
  ('Cc1cnc(Nc2ccc(CN3CCN(C)CC3)cc2)nc1-c1cccc(S(C)(=O)=O)c1', 3.46),
  ('CN1CCN(Cc2ccc(Nc3ncc(Cl)c(Nc4ccccc4C(=O)NC4CC4)n3)cc2)CC1', 1.51),
  ('Cc1cnc(Nc2ccc(N(C)C3CCN(C)CC3)cc2)nc1-c1ccc(F)c(Cl)c1', 2.62),
  ('CN1CCN(Cc2ccc(Nc3ncc(Cl)c(Nc4ccc(Cl)cc4S(=O)(=O)N4CCCC4)n3)cc2)CC1', 3.03);

Turning now to a further compound:
Given the entry CN1CCN(Cc2ccc(Nc3ncc(Cl)c(Nc4ccc(F)cc4S(=O)(=O)N4CCCC4)n3)cc2)CC1 , report its measured log10 of IC50.
1.57

FYI, the data here is from patent US8901120B2.
